Assay: Single dose PK in patients with narcolepsy (Cohorts 5, 6 and 7), plasma
Format: in vivo, human
Conditions: human, plasma, iv, 5 mg; 9 hr; NT1, single 9 h IV infusion; read-out: Plasma concentration, Mean
Source text: […]
observed.property: concentration at 9 h (ng/mL)
Number in ng/mL, nothing else.

Notebook: COC(=O)N1CCC[C@H](NS(C)(=O)=O)[C@@H]1CO[C@H]1CC[C@@H](c2ccccc2)CC1 [Compound A] , concentration at 9 h read as 9.64

====

Assay: Single dose PK in healthy subjects (Cohorts 1, 2, S1 and S2), plasma
Type: in vivo, human
Conditions: human, plasma, intravenous, 14 mg; 0.5 hr; read-out: Plasma concentration, Minimum
observed.property: concentration at 0.5 h (ng/mL)
Number in ng/mL, nothing else.

Notebook: "COC(=O)N1CCC[C@H](NS(C)(=O)=O)[C@@H]1CO[C@H]1CC[C@@H](c2ccccc2)CC1" , concentration at 0.5 h read as 18
